# assay-explanation: Lipophilicity by RP-HPLC (methanol/water, RP-18 column)
# Format: physicochemical
# experimental-parameters: Φ0 = −log kw/S
observation-type: Φ0 (chromatographic lipophilicity parameter), RP–HPLC

# compound, endpoint-result
rows = [
    ("CC(C)NC1=NC(=O)C2(CCC2)S1", 0.619),
    ("CC(C)NC1=NC(=O)C(c2ccccc2)S1 (stereo not shown)", 0.659),
    ("CCCC1SC(NC(C)C)=NC1=O (stereo not shown)", 0.652),
    ("CC(C)NC1=NC(=O)C(c2ccc(Br)cc2)S1 (stereo not shown)", 0.728),
    ("O=C1N=C(NC23CC4CC(CC(C4)C2)C3)SC12CCCCC2", 0.865),
    ("O=C1N=C(NC23CC4CC(CC(C4)C2)C3)SC1c1ccc(Br)cc1 (stereo not shown)", 1.009),
    ("CC(C)C1SC(NC(C)(C)C)=NC1=O (stereo not shown)", 0.667),
]

###

# assay-explanation: Lipophilicity by RP-HPLC (methanol/water, RP-18 column)
# Type: physicochemical
# experimental-parameters: Φ0 = −log kw/S
observation-type: Φ0 (chromatographic lipophilicity parameter), RP–HPLC

# compound, endpoint-result
records = [
    ("O=C1N=C(NC23CC4CC(CC(C4)C2)C3)SC12CCC2 [Compound 27]", 0.835),
    ("CCC1SC(NC23CC4CC(CC(C4)C2)C3)=NC1=O (stereo not shown) [Compound 20]", 0.811),
    ("CC1(C)SC(NC23CC4CC(CC(C4)C2)C3)=NC1=O [Compound 23]", 0.806),
    ("CC(C)NC1=NC(=O)C(C)(C)S1 [Compound 5]", 0.571),
    ("CCC1SC(NC(C)C)=NC1=O (stereo not shown) [Compound 2]", 0.571),
    ("CC(C)C1SC(NC23CC4CC(CC(C4)C2)C3)=NC1=O (stereo not shown) [Compound 22]", 0.830),
    ("CC(C)NC1=NC(=O)C(C)S1 (stereo not shown) [Compound 1]", 0.454),
    ("CC(C)NC1=NC(=O)C(C(C)C)S1 (stereo not shown) [Compound 4]", 0.633),
    ("CC1SC(NC23CC4CC(CC(C4)C2)C3)=NC1=O (stereo not shown) [Compound 19]", 0.786),
    ("O=C1CSC(NC23CC4CC(CC(C4)C2)C3)=N1 [Compound 28, 2-(Adamantylamino)thiazol-4(5H)-one]", 0.759),
]

###

# assay-explanation: Lipophilicity by RP-TLC (methanol/water, HPTLC 60RP-18 plates)
# Format: physicochemical
# experimental-parameters: Φ0 = −RM0/S
Some molecules, each annotated with its measured Φ0 (chromatographic lipophilicity parameter), RP–TLC.
observation-type: Φ0 (chromatographic lipophilicity parameter), RP–TLC

# molecule, endpoint-result
data = [
    ("CC(C)(C)NC1=NC(=O)C2(CCC2)S1", 0.683),
    ("O=C1CSC(NC23CC4CC(CC(C4)C2)C3)=N1", 0.832),
    ("CC(C)C1SC(NC(C)(C)C)=NC1=O (centres unmarked)", 0.699),
    ("CC(C)(C)NC1=NC(=O)C(c2ccc(Br)cc2)S1 (centres unmarked)", 0.774),
    ("CCCC1SC(NC(C)(C)C)=NC1=O (centres unmarked)", 0.703),
    ("CCC1SC(NC(C)(C)C)=NC1=O (centres unmarked)", 0.643),
    ("CC(C)NC1=NC(=O)C2(CCC2)S1", 0.691),
    ("CCC1SC(NC(C)C)=NC1=O (centres unmarked)", 0.668),
    ("CC(C)NC1=NC(=O)C(c2ccc(Br)cc2)S1 (centres unmarked)", 0.736),
    ("CC(C)(C)NC1=NC(=O)C2(CCCCC2)S1", 0.762),
    ("CC1SC(NC(C)(C)C)=NC1=O (centres unmarked)", 0.658),
]

###

# assay-explanation: Lipophilicity by RP-HPLC (methanol/water, RP-18 column)
# Type: physicochemical
# experimental-parameters: RP-HPLC, methanol/water
Note to self: use 1 (yes) only for −S (slope of the regression curve), RP–HPLC readings below 4; a reading exactly at 4 still gets 0 (no).

# molecule, class-name
measured = [
    ("CC(C)(C)NC1=NC(=O)C(c2ccc(Br)cc2)S1 (stereo not drawn)", "0 (no)"),
    ("CCC1SC(NC(C)(C)C)=NC1=O (stereo not drawn)", "1 (yes)"),
    ("O=C1N=C(NC23CC4CC(CC(C4)C2)C3)SC1c1ccccc1 (stereo not drawn)", "0 (no)"),
    ("CC(C)NC1=NC(=O)C(c2ccccc2)S1 (stereo not drawn)", "0 (no)"),
    ("CCCC1SC(NC(C)(C)C)=NC1=O (stereo not drawn)", "1 (yes)"),
    ("CC1(C)SC(NC23CC4CC(CC(C4)C2)C3)=NC1=O", "0 (no)"),
    ("CC(C)NC1=NC(=O)C(C)S1 (stereo not drawn)", "1 (yes)"),
    ("CC(C)C1SC(NC23CC4CC(CC(C4)C2)C3)=NC1=O (stereo not drawn)", "0 (no)"),
    ("CC(C)(C)NC1=NC(=O)C2(CCC2)S1", "1 (yes)"),
    ("CCCC1SC(NC23CC4CC(CC(C4)C2)C3)=NC1=O (stereo not drawn)", "0 (no)"),
    ("O=C1N=C(NC23CC4CC(CC(C4)C2)C3)SC1c1ccc(Br)cc1 (stereo not drawn)", "0 (no)"),
    ("CC(C)NC1=NC(=O)C(c2ccc(Br)cc2)S1 (stereo not drawn)", "0 (no)"),
    ("CC(C)NC1=NC(=O)C(C)(C)S1", "1 (yes)"),
    ("O=C1N=C(NC23CC4CC(CC(C4)C2)C3)SC12CCCCC2", "0 (no)"),
    ("CC(C)NC1=NC(=O)C(C(C)C)S1 (stereo not drawn)", "1 (yes)"),
    ("CC(C)C1SC(NC(C)(C)C)=NC1=O (stereo not drawn)", "1 (yes)"),
    ("CCCC1SC(NC(C)C)=NC1=O (stereo not drawn)", "1 (yes)"),
]

###

Some compounds, each annotated with its measured RM0.
# assay-explanation: Lipophilicity by RP-TLC (methanol/water, HPTLC 60RP-18 plates)
# Format: physicochemical
# experimental-parameters: RP-TLC, methanol/water, extrapolated to zero methanol concentration, 22 °C

# compound, RM0
records = [
    ("CCCC1SC(NC23CC4CC(CC(C4)C2)C3)=NC1=O (stereo not shown)", 2.33),
    ("O=C1N=C(NC23CC4CC(CC(C4)C2)C3)SC12CCCCC2", 3.09),
    ("CC(C)NC1=NC(=O)C2(CCCCC2)S1", 2.04),
    ("CC(C)(C)NC1=NC(=O)C2(CCCCC2)S1", 1.89),
    ("O=C1CSC(NC23CC4CC(CC(C4)C2)C3)=N1", 2.06),
    ("CCCC1SC(NC(C)C)=NC1=O (stereo not shown)", 1.63),
    ("CC(C)NC1=NC(=O)C(C)(C)S1", 1.20),
]

###

# assay-explanation: Lipophilicity by RP-TLC (methanol/water, HPTLC 60RP-18 plates)
# Assay type: physicochemical
# experimental-parameters: Φ0 = −RM0/S
Some compounds, each annotated with its measured Φ0 (chromatographic lipophilicity parameter), RP–TLC.
observation-type: Φ0 (chromatographic lipophilicity parameter), RP–TLC

# compound, endpoint-result
records = [
    ("CCCC1SC(NC(C)C)=NC1=O (centres unmarked)", 0.673),
    ("CC1SC(NC23CC4CC(CC(C4)C2)C3)=NC1=O (centres unmarked)", 0.810),
    ("CC(C)(C)NC1=NC(=O)C(c2ccccc2)S1 (centres unmarked)", 0.739),
    ("CC(C)NC1=NC(=O)C(C)S1 (centres unmarked)", 0.734),
    ("O=C1N=C(NC23CC4CC(CC(C4)C2)C3)SC1c1ccc(Br)cc1 (centres unmarked)", 1.086),
    ("CCCC1SC(NC23CC4CC(CC(C4)C2)C3)=NC1=O (centres unmarked)", 0.909),
    ("CC(C)NC1=NC(=O)C(C)(C)S1", 0.629),
    ("CC(C)NC1=NC(=O)C(C(C)C)S1 (centres unmarked)", 0.663),
    ("O=C1N=C(NC23CC4CC(CC(C4)C2)C3)SC1c1ccccc1 (centres unmarked)", 0.787),
    ("CC1(C)SC(NC23CC4CC(CC(C4)C2)C3)=NC1=O", 0.863),
    ("CC(C)NC1=NC(=O)C2(CCCCC2)S1", 0.709),
]

###

# assay-explanation: Lipophilicity by RP-HPLC (methanol/water, RP-18 column)
# Assay type: physicochemical
# experimental-parameters: Φ0 = −log kw/S
observation-type: Φ0 (chromatographic lipophilicity parameter), RP–HPLC

# compound, endpoint-result
measured = [
    ("CC1SC(NC(C)(C)C)=NC1=O (centres unmarked)", 0.557),
    ("CC(C)(C)NC1=NC(=O)C(C)(C)S1", 0.608),
    ("CC(C)(C)NC1=NC(=O)C2(CCC2)S1", 0.652),
    ("CCCC1SC(NC(C)(C)C)=NC1=O (centres unmarked)", 0.682),
    ("O=C1N=C(NC23CC4CC(CC(C4)C2)C3)SC1c1ccccc1 (centres unmarked)", 0.822),
    ("CC(C)NC1=NC(=O)C2(CCCCC2)S1", 0.712),
    ("CCC1SC(NC(C)(C)C)=NC1=O (centres unmarked)", 0.612),
    ("CC(C)(C)NC1=NC(=O)C2(CCCCC2)S1", 0.732),
    ("CCCC1SC(NC23CC4CC(CC(C4)C2)C3)=NC1=O (centres unmarked)", 0.840),
    ("CC(C)(C)NC1=NC(=O)C(c2ccccc2)S1 (centres unmarked)", 0.730),
    ("CC(C)(C)NC1=NC(=O)C(c2ccc(Br)cc2)S1 (centres unmarked)", 0.745),
]
